system: Hxt2; construct: full-length HXT2 expressed from ADH1 promoter on multicopy plasmid Hxt2mnx-pVT (pVT102-U) in S. cerevisiae EBY.S7 (all 18 hexose transporter genes deleted; HXT2m strain); assay: initial 2DG uptake ([…] s, zero-trans), bioluminescent 2DG6P assay in HXT2m cells; assay type: cell-based, Saccharomyces cerevisiae; settings: 1 mM 2DG, pH 7.4, 25 °C, 30 min preincubation; authors: nonspecific action via membrane lipid, not specific binding; noncompetitive
MEASURED_QUANTITY: IC50 (mM)
Could you give me the number in mM? Just the number is fine.

The recorded IC50 for CCCCCCO is 15.2
